- protocolText: qHTS assay for small molecule antagonists of peroxisome proliferator-activated receptor delta signaling (AID 588535);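 note: cells co-treated with a PPAR-delta agonist as stimulator during compound exposure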
- protocolConditions: HEK293T PPARd-UAS-bla, beta-lactamase FRET ratio, 18 h; 460 nm channel
Inconclusive results are not listed.
Grouping rule (max response): lower level = under 10%, middle level = from 10% up to 40%, upper level = 40% and over

1. CCCN(CCC)c1c([N+](=O)[O-])cc(S(N)(=O)=O)cc1[N+](=O)[O-]; upper level
2. CC(=O)[O][Hg][c]1ccccc1; lower level
3. ClC1=C(Cl)[C@]2(Cl)[C@@H]3[C@@H]4C[C@@H]([C@H]5O[C@@H]45)[C@@H]3[C@@]1(Cl)C2(Cl)Cl; middle level
4. Nc1c(Cl)c(Cl)c(Cl)c(Cl)c1Cl; middle level
5. O=C(O)COc1ccccc1; upper level
6. CS(=O)(=O)c1ccc(C(=O)C2C(=O)CCCC2=O)c([N+](=O)[O-])c1; middle level
7. CCCCCCCCCCCCCCCC[N+](C)(C)C; lower level
8. CCOP(=O)(NC(C)C)Oc1ccc(SC)c(C)c1 (configuration not stated); upper level
9. CCO/N=C(\CC)C1=C(O)CC(c2c(C)cc(C)cc2C)CC1=O (configuration not stated); middle level
10. Cc1cc(O)ccc1Cl; upper level
11. Nc1ccc(N=Nc2ccccc2)cc1; lower level
12. Clc1cnc(Oc2ccc(Oc3ncc(Cl)cc3Cl)cc2)c(Cl)c1; middle level

====

- Test system: C33A
- protocolText: Primary qHTS to identify gynecologic anti-cancer compounds using libraries of approved drugs and bioactive compounds (AID 1345084); note: % is set by controls: 0 for no effect and ±100 for the full control effect; nearly all actives have a fitted effect of over 55% in size
- protocolConditions: Gynecologic cancer cell panel viability, ATPlite luminescence, 48 h; series mostly up to 57.5 µM
Inconclusive results are not listed. Active and inactive are the calls of the source. Calls come from the whole dose curve; as a rule, active = well fitted cell-killing curve with a large enough effect; inconclusive = small, poorly fitted or top-dose-only effect, or effect the other way; inactive = flat fitted curve, though single readings scatter.
attributeMeasured: outcome

1) CCCCCCCCCC(CC)c1ccc(S(=O)(=O)O)cc1 (stereo not drawn); inactive
2) CN[C@@H](C)[C@H](O)c1ccccc1; inactive
3) CC[N+]1(CCOC(=O)C(O)(c2ccccc2)c2ccccc2)CCCCC1; inactive

====

- Tested on: TAB165
- protocolText: qHTS profiling for inhibitors of Plasmodium falciparum proliferation (AID 504749); note: nearly all actives have a fitted effect of over 60% in size
- protocolConditions: P. falciparum in erythrocytes, SYBR Green DNA, 72 h; series mostly up to 28.7 µM
Inconclusive results are not listed. The source made the active and inactive calls. Calls come from the whole dose curve; as a rule, active = well fitted inhibition curve with a large enough effect; inconclusive = small, poorly fitted or top-dose-only effect; inactive = flat fitted curve, though single readings scatter.
Possible outcomes: active, inactive

1) Cc1cc(O)ccc1Cl; inactive
2) c1ccc(C2(c3ccccc3)CC2C2=NCCN2)cc1 (stereo unspecified); inactive
3) C#CC1(O)CCC2C3CCC4=CC(=O)CCC4(C)C3CCC21C (stereo unspecified); inactive
4) CC(C)NC(C)Cc1ccc(I)cc1 (stereo unspecified); inactive
5) CC(=O)[O][Hg][c]1ccccc1; active
6) CN1C2CCC1CC(OC(=O)c1cc(Cl)cc(Cl)c1)C2 (stereo unspecified); inactive
7) O=C(O)COc1ccccc1; inactive
8) O=C(O)C(Cl)Cl; inactive
9) C=CCN1CC[C@]23CCCCC2[C@H]1Cc1ccc(O)cc13 (stereo partly specified); inactive
10) NC(=O)CN1CC(O)CC1=O (stereo unspecified); inactive
11) CCCCc1ccc(C(=O)O)nc1; inactive

====

Recorded max response values for a group of compounds are listed next.
- Tested on: HaCat
- protocolText: Cytotoxic Profiling of Annotated Libraries Using Quantitative High-Throughput Screening (AID 1296008); note: % is set by controls: 0 for no effect and ±100 for the full control effect; nearly all actives have a fitted effect of over 60% in size
- protocolConditions: Five cell lines viability, CellTiter-Glo ATP luminescence, 48-72 h; stronger effect = lower value
Inconclusive results are not listed.
attributeMeasured: max response (%)

1) C=C[C@@H]1CN2CCC1C[C@@H]2[C@@H](O)c1ccnc2ccccc12 (stereo partly specified); -17.4
2) COc1cc2cc(c1Cl)N(C)C(=O)C[C@H](OC(=O)C(C)C)[C@]1(C)O[C@H]1[C@H](C)[C@@H]1C[C@@](O)(NC(=O)O1)[C@H](OC)C=CC=C(C)C2; -21.1
3) S=C(NC1CCCCC1)N1CCC(c2cnc[nH]2)CC1; -12.4
4) C#CC1(O)CCC2C3CCC4=CC(=O)CCC4(C)C3CCC21C (stereo unspecified); -0.0987
5) COC1=C[C@@H]2[C@@H]3Cc4ccc(OC)c(O)c4[C@]2(CCN3C)CC1=O; -2.22
6) CCCCCC[C@H]1C(=O)O[C@H](C)[C@H](NC(=O)c2cccc(NC=O)c2O)C(=O)O[C@@H](C)[C@@H]1OC(=O)CC(C)C; -16
7) C[C@H]1CCCC=CC2C[C@H](O)C[C@@H]2[C@H](O)C=CC(=O)O1 (stereo partly specified); -111
8) O=S(=O)(O)C(F)(F)C(F)(F)C(F)(F)C(F)(F)C(F)(F)C(F)(F)C(F)(F)C(F)(F)F; 0.89
9) c1ccc2c(CN3CCNCC3)cccc2c1; 2.18
10) CC(=O)OCC1=C(C(=O)O)N2C(=O)[C@@H](N)[C@@H]2SC1; -5.82
11) CC(=CCCC1=CCC(C2=CC(=O)OC2O)OC1O)CCC1=C(C)CCCC1(C)C (stereo unspecified); -18.3
12) CC(=O)N(C)c1cccc(-c2ccnc3c(C(=O)c4cccs4)cnn23)c1; 3.39
13) CC(C)(C)c1cc(C=C(C#N)C#N)cc(Br)c1O; 3.48
14) O=[N+]([O-])/N=C1\NCCN1Cc1ccc(Cl)nc1; -1.41
15) C1CCC(NC2CCCCC2)CC1; 3.35
16) CC(C)N[C@@H]1CCn2c(=O)[nH]c3cccc(c32)[C@@H]1O; -2.4
17) Cc1ccc(Cl)c(O)c1; -3.88
18) O=[N+]([O-])c1c2ccccc2cc2ccccc12; 3.41
19) CC(C)[C@]12O[C@@H]1[C@@H]1O[C@]13[C@]1(O[C@H]1C[C@@H]1C4=C(CC[C@@]13C)C(=O)OC4)[C@H]2O; -144
20) Clc1ccccc1C(c1ccccc1)(c1ccccc1)n1cccn1; -3.22
21) O=[N+]([O-])c1ncc[nH]1; -7.46
22) CCO/N=C(\CC)C1=C(O)CC(c2c(C)cc(C)cc2C)CC1=O (stereo unspecified); -8.94
23) CO[C@H]1CCC(O[C@H]2C[C@H]([C@]3(C)CC[C@]4(C[C@H](O)[C@@H](C)[C@@H]([C@@H](C)C=C(C)C(=O)[C@H](C)C[C@H](C)C(=O)O)O4)O3)O[C@]3(O[C@@H]([C@H]4O[C@@](O)(CO)[C@H](C)C[C@H]4C)C[C@H]3C)[C@H]2C)O[C@H]1C (stereo partly specified); -21.4
24) CC1=NN=C(c2ccc(N)cc2)c2cc3c(cc2C1)OCO3; -15.7
25) O=C(N[C@@H](COc1ccc2[nH]c(=O)[nH]c2c1)c1ccccc1)c1cccn(Cc2ccc(F)c(F)c2)c1=O; -18
26) CC1(N2CCC(n3c([C@@H]4CCCNC4)nc4ccccc43)CC2)CCCCCCC1; -28.8
27) Oc1ccc2c3c1O[C@H]1c4[nH]c5c(c4C[C@@]4(O)[C@@H](C2)N(CC2CC2)CC[C@]314)C[C@@]1(O)[C@H]2Cc3ccc(O)c4c3[C@@]1(CCN2CC1CC1)[C@H]5O4; -0.228
28) Nc1ccc(Cl)cc1; -11.6
29) COC(=O)c1cncn1C(C)c1ccccc1 (stereo unspecified); -2.03
30) CC(O)CN1CCN(CC(=O)[O-])CCN(CC(=O)[O-])CCN(CC(=O)[O-])CC1.[Gd+3] (stereo unspecified); -14.5
31) COc1cc([C@@H]2c3cc4c(cc3[C@@H](O)C3COC(=O)C32)OCO4)cc(OC)c1O (stereo partly specified); 3.35
